- Test system: Bacillus subtilis
- protocol: Antibacterial activity against Bacillus subtilis ATCC 6051 after 24 hrs by spectrophotometric analysis
- Format: functional, organism-based
- experimentalParameters: ATCC 6051, 24 h
experimentalEndpoint: MIC (µM)
One number for each entry, in µM.

List reported MIC for each of these molecules:
1. CO[C@H]1[C@H](O[C@@H]2c3c(cc4c(c3O)C(=O)c3c(O)cccc3C4=O)C(=O)[C@@](C)(O)[C@H]2OC)O[C@@H](C)[C@H](O)[C@H]1O [ARANCIAMYCIN]
2. C[C@@H]1O[C@@H](O[C@H]2C[C@](C)(O)Cc3cc4c(c(O)c32)C(=O)c2c(O)cccc2C4=O)[C@H](O)[C@H](O)[C@H]1O

1. 15
2. 3.7

Fill in MIC for each of the 2 molecules listed.
1. CO[C@H]1[C@H](O[C@H]2C[C@](C)(O)C(=O)c3cc4c(c(O)c32)C(=O)c2c(O)cccc2C4=O)O[C@@H](C)[C@H](O)[C@H]1O
2. CO[C@H]1[C@H](O[C@H]2C[C@](C)(O)Cc3cc4c(c(O)c32)C(=O)c2c(O)cccc2C4=O)O[C@@H](C)[C@H](O)[C@H]1O

7.2
7.5

====

- Tested on: Pseudomonas aeruginosa
- protocol: Antibacterial activity against Pseudomonas aeruginosa ATCC 10145 after 24 hrs by spectrophotometric analysis
- Type: functional, organism-based
- experimentalParameters: ATCC 10145, 24 h
pIC50: −log10 of the molar value.
Kindly supply the reported pIC50 values for the records listed here.

Below are worked cases with known answers.
- sampleSmiles: "C[C@@H]1O[C@@H](O[C@H]2C[C@](C)(O)Cc3cc4c(c(O)c32)C(=O)c2c(O)cccc2C4=O)[C@H](O)[C@H](O)[C@H]1O"
  pIC50: "< 4.52"
- sampleSmiles: "CO[C@H]1[C@H](O[C@@H]2c3c(cc4c(c3O)C(=O)c3c(O)cccc3C4=O)C(=O)[C@@](C)(O)[C@H]2OC)O[C@@H](C)[C@H](O)[C@H]1O"
  pIC50: "< 4.52"
- sampleSmiles: "CO[C@H]1[C@H](O[C@H]2C[C@](C)(O)C(=O)c3cc4c(c(O)c32)C(=O)c2c(O)cccc2C4=O)O[C@@H](C)[C@H](O)[C@H]1O"
  pIC50: "< 4.52"

Endpoint output: pIC50 of CO[C@H]1[C@H](O[C@H]2C[C@](C)(O)Cc3cc4c(c(O)c32)C(=O)c2c(O)cccc2C4=O)O[C@@H](C)[C@H](O)[C@H]1O . Value?
< 4.52

====

- Test system: Bacillus spizizenii
- protocol: Antibacterial activity against Bacillus subtilis ATCC 6633 after 24 hrs by spectrophotometric analysis
- Format: functional, organism-based
- experimentalParameters: ATCC 6633, 24 h
experimentalEndpoint: IC50
Note to self: number, then unit, no commentary.

- compound: "CO[C@H]1[C@H](O[C@@H]2c3c(cc4c(c3O)C(=O)c3c(O)cccc3C4=O)C(=O)[C@@](C)(O)[C@H]2OC)O[C@@H](C)[C@H](O)[C@H]1O [ARANCIAMYCIN]"
  IC50: "5800 nM"

Report IC50 for each item below.
1. C[C@@H]1O[C@@H](O[C@H]2C[C@](C)(O)Cc3cc4c(c(O)c32)C(=O)c2c(O)cccc2C4=O)[C@H](O)[C@H](O)[C@H]1O
2. CO[C@H]1[C@H](O[C@H]2C[C@](C)(O)C(=O)c3cc4c(c(O)c32)C(=O)c2c(O)cccc2C4=O)O[C@@H](C)[C@H](O)[C@H]1O

3000 nM
2800 nM

// IC50 lookup, key: CO[C@H]1[C@H](O[C@H]2C[C@](C)(O)Cc3cc4c(c(O)c32)C(=O)c2c(O)cccc2C4=O)O[C@@H](C)[C@H](O)[C@H]1O
2400 nM
